molecular target: CAMK1G (human); assay: radiometric filter-binding kinase assay, Kinase HotSpot; conditions: compound 0.5 µM; ATP 10 µM
TEST_READOUT: residual activity (%)
Expressed in %, but write only the number.

Which value of residual activity has been reported for `COc1cc2ncnc(N3CCN(C(=O)Nc4ccc(Oc5ccccc5)cc4)CC3)c2cc1OC` in the records?
100

What do we get for `Nc1nnc2[nH]c3ccccc3nc1-2` ?
97.9

Now try `O=C(CCCc1ccc(-c2ccccc2F)cc1)Nc1ccc(O)cc1` .
96.8

`CN(C)C[C@H]1CCn2c(c(C3=C(c4cn(C)c5ccccc45)C(=O)NC3=O)c3ccccc32)C1` , same question.
95.8

// query: `Oc1ccc(Nc2nc(-c3ccc(Cl)cc3)cs2)cc1`
106

Also `Cn1cnc2cc3c(Nc4cccc(Br)c4)ncnc3cc21` , if possible.
94.2

Continue with `O=C1Cc2c([nH]c3ccc(Br)cc23)-c2ccccc2N1`
97.4

What would you report for `O=C1NC(=O)C(c2cn(CCCO)c3ncccc23)=C1c1cnccn1` ?
101

Would you mind doing `O=C1NC(=O)C(c2c[nH]c3ccccc23)=C1c1c[nH]c2ccccc12` as well?
99.5

Now try `CCn1cnc2c(Nc3cccc(Cl)c3)nc(N[C@@H]3CCCC[C@@H]3N)nc21` .
94.1

One more compound: `O=C(O)/C=C/c1cc(Br)c(Br)c(Br)c1Br`
94.1

====

Would you kindly list residual activity for each of these molecules?
biological target: CAMK1G (human) (UniProt Q96NX5); assay: radiometric filter-binding kinase assay, Kinase HotSpot; conditions: compound 0.5 µM; ATP 10 µM
Sequence (Q96NX5 whole entry, looked up): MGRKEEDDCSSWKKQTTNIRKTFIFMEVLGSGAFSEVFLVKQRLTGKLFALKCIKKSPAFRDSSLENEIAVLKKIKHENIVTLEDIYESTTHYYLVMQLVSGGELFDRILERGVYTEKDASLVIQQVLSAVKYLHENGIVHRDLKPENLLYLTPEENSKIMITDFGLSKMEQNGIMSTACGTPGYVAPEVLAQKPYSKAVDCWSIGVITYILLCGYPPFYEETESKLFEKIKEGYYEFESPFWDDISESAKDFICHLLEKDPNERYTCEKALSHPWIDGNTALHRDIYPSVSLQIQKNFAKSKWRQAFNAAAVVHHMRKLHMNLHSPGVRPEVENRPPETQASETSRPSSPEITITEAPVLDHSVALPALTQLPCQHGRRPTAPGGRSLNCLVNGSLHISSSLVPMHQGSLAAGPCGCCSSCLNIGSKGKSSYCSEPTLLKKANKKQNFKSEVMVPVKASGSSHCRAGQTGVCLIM
Report the value in % with no unit label.

Please report the recorded residual activity for `CC(C)[C@H](CO)Nc1nc(Nc2cc(N)cc(Cl)c2)c2ncn(C(C)C)c2n1` .
105

Another molecule: `CC(C)c1nn(-c2c(Cl)cccc2Cl)c2nc(Cc3ccc(OCCO)cc3)nc(O)c12`
100

What about `COc1ccc(OC)c2c(=S)c3ccccc3[nH]c12` ?
99.5

# iterate: `Cn1nc2c3c(cccc31)C(=O)c1ccccc1-2`
95.5

Next molecule up: `CN([C@@H](Cc1ccc(OS(=O)(=O)c2cccc3cnccc23)cc1)C(=O)N1CCN(c2ccccc2)CC1)S(=O)(=O)c1cccc2cnccc12`
93.6

====

target: WEE1 (human) (UniProt P30291); assay: radiometric filter-binding kinase assay, Kinase HotSpot; details: compound 0.5 µM; ATP 10 µM
Sequence (P30291 whole entry, looked up): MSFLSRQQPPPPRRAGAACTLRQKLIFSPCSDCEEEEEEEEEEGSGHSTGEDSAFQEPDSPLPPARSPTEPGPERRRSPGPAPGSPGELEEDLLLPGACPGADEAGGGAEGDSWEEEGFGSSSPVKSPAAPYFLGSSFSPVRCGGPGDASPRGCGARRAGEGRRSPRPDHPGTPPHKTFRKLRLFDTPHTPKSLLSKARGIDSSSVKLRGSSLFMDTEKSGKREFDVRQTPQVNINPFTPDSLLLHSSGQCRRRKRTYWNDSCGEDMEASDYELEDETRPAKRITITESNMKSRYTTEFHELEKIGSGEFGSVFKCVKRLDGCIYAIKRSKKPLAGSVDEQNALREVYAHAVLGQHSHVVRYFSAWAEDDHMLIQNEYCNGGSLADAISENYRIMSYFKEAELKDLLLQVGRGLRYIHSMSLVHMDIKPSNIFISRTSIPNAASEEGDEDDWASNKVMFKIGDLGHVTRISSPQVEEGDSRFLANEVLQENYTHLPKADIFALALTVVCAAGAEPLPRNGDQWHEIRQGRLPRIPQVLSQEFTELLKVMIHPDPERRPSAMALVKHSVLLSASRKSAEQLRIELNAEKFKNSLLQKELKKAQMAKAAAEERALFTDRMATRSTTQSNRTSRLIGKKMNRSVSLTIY
Exercise: state measured residual activity for each of the compounds provided.

# query: residual activity of entry O=C1Nc2ccccc2/C1=C1/Nc2ccccc2/C1=N\OCCC(O)CO (stereo not drawn)
82%

One more compound: `O=C1NC(=O)C(c2c[nH]c3ccccc23)=C1c1c[nH]c2ccccc12`
98.1%

// repeat for `O=C1NC(=O)/C(=C\c2ccc3nccnc3c2)S1` and report
83.1%

Again, but for `O=C(CCCc1ccc(-c2ccccc2F)cc1)Nc1ccc(O)cc1`
83.7%

Try `Cn1cnc2cc3c(Nc4cccc(Br)c4)ncnc3cc21` next.
106%

Field entry: `CC(C)c1nn(-c2c(Cl)cccc2Cl)c2nc(Cc3ccc(OCCO)cc3)nc(O)c12`
109%

Let us now turn to `O=C1Nc2ccccc2/C1=C1\Nc2ccccc2\C1=N/O`
87.1%

Repeat for the following compound: `CC(C)[C@H](CO)Nc1nc(Nc2cc(N)cc(Cl)c2)c2ncn(C(C)C)c2n1`
70.8%

Follow-up entry: `O=C1Cc2c([nH]c3ccc(Br)cc23)-c2ccccc2N1`
87.7%

Queued: `COc1ccc(OC)c2c(=S)c3ccccc3[nH]c12`
102%

Also, `Nc1nccc(-c2c(-c3ccc(F)cc3)ncn2C2CCNCC2)n1` please.
106%

Another compound to look at: `Nc1nnc2[nH]c3ccccc3nc1-2`
101%

Try the compound `O=C(O)/C=C/c1cc(Br)c(Br)c(Br)c1Br`
99.1%

Same question for `CCn1cnc2c(Nc3cccc(Cl)c3)nc(N[C@@H]3CCCC[C@@H]3N)nc21` please.
110%

Cool, now `Oc1ccc(Nc2nc(-c3ccc(Cl)cc3)cs2)cc1`
93.2%

// repeat for `CCN(CC)CCCCN1c2ccccc2Oc2ccc(Cl)cc21` and report
92.7%

Cool, now `CN([C@@H](Cc1ccc(OS(=O)(=O)c2cccc3cnccc23)cc1)C(=O)N1CCN(c2ccccc2)CC1)S(=O)(=O)c1cccc2cnccc12`
87.7%

Next compound: `Cn1sc(=O)n(Cc2ccccc2)c1=O`
92.3%

And what about the compound `O=C1NC(=O)C(c2cn(CCCO)c3ncccc23)=C1c1cnccn1` ?
96.2%

Can you handle `COc1ccc(CNC(=O)Nc2ncc([N+](=O)[O-])s2)cc1` next?
95.2%

Now the compound `COc1cc2ncc(-c3ccccc3)nc2cc1OC`
82.8%

Next: `Cn1nc2c3c(cccc31)C(=O)c1ccccc1-2`
92.3%

Also, `Cc1nc2cc3nc(-c4cccs4)cnc3cc2n1C` please.
86.9%

Origin of measurements: the kinase profiling compilation of Christmann-Franck et al. (2016)
